B1: Hairpin Ribozyme (parent)
chain: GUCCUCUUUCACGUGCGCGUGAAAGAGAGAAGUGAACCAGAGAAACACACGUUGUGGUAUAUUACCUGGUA

Variants of: B1
Experiment: self-cleavage, relative activity (ratio to wild type); higher = more cleavage; co-transcriptional
METRIC: self-cleavage
Answer with the value's number alone.

>  <VARIANT NOTATION>
A31U U55C

>  <self-cleavage>
0.0975

$$$$

// query Which self-cleavage is reported for this variant? A41G U63G
// result 0.248

// query Bench note: what self-cleavage did C4G A71U show?
// result 0.289

// query For the variant shown here, A28C A49U , give the reported self-cleavage.
// result 0.192

// query Please look up its self-cleavage: A31G U70C
// result 0.751
